Protocol: small-molecule microarray binders of probe aXIP, primary screen, biochemical, NeuroSMM set, 635/667 nm fluorescence (AID 1119);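 also: probe is the protein aXip251-270 applied at 1 µg/mL to compound-printed slides; binding of probe to printed compounds measured as 667 nm fluorescence plus signal to noise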
Conditions: higher = more signal, called active from +8 up or from −8 down
The molecules listed here are annotated with their composite Z-score.
Measurement Name: composite Z-score

>>> reported_result("COc1ccc([Si](C)(C)[C@@H]2[C@@H](CC(=O)N(CCO)Cc3ccccc3)O[C@]3(C(=O)N(Cc4cccc(N5C(=O)c6cccc7cccc5c67)c4)c4ccccc43)[C@H]2C)cc1")
0.363
>>> reported_result("C=CCN1Cc2ccccc2[C@H]2OC(c3ccc(OCCCO)cc3)=N[C@@]2(CC=C)C1=O")
0.911
>>> reported_result("C=C(COC)/C(=C/C[C@H](OC(C)=O)c1ccc(OCCO)cc1)c1cc(C(=O)OC)ccc1OC")
0.835
>>> reported_result("C=CCC(OC(C)=O)[C@@H]1[C@@H](N(Cc2cc3ccccc3o2)C(=O)c2ccc(C)cc2)c2cc(OCCCO)ccc2N1C(=O)Cc1ccc(OC)cc1 (some centres not stated)")
0.264
>>> reported_result("C=C(/C(=C/C[C@H](OC(C)=O)c1ccccc1OCCO)c1cc(C(=O)OC)ccc1OC)C(C)C")
-0.0127
>>> reported_result("O=c1n(-c2ccccc2)c(=O)n2n1CC(COc1ccccc1)=C([C@H](O)CCc1ccccc1)[C@@H]2CO")
0.11
>>> reported_result("CC[C@H]1C2=C3C(CC[C@H]4C(OCc5ccc(F)cc5C(F)(F)F)OC[C@](C)([C@@H]34)N(C(=O)OC(C)(C)C)C2)C(COC)C1COC (some centres not stated)")
0.0377

====

Study Target: Streptavidin (Streptomyces avidinii) (UniProt P22629)
Sequence (P22629 whole entry, looked up): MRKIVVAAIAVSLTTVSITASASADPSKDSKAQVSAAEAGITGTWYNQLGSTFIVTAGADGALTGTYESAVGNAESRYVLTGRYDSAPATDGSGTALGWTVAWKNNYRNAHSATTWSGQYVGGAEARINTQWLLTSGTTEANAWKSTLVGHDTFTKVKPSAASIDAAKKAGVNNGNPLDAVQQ
Protocol: streptavidin binders on small-molecule microarray, primary screen, artefact control for SMM compound annotation, biophysical, 635/667 nm fluorescence (AID 1147);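 also: signal reflects streptavidin binding to arrayed compounds as a control protein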
Conditions: streptavidin binding, higher = more signal
Would you mind labelling by composite z-score? At or over 0.9 is y, under is n.

>>> assigned_label("CCCC[C@@H]1C[C@H]1[C@@H](NC(=O)Cc1ccccc1)c1ccc(-c2ccccc2)cc1")
"n"
>>> assigned_label("C=CCNC(=O)[C@H]1[C@@H]2C(=O)O[C@@H](c3ccccc3)[C@@H](c3ccccc3)N2[C@@H](c2ccc(O)cc2)[C@]12C(=O)Nc1ccc(C#CC3(O)CCCCCC3)cc12")
"n"
>>> assigned_label("O=C1OCC=C[C@H]2OC34C=CCN(Cn5nnc6ccccc65)C(=O)[C@H]3N(CCCO)C(=O)[C@@H]4[C@@H]12 (stereo partly drawn)")
"n"
>>> assigned_label("COc1ccc(CCNC(=O)[C@@]2(Sc3ccc(C)cc3)CC(=O)N(C3Cc4ccccc4C3)[C@@H]2c2ccc(CO)cc2)cc1")
"y"
>>> assigned_label("OCC1CC(c2ccccc2)=NO1 (stereo not drawn)")
"y"
>>> assigned_label("COCCOC(=O)N1C(=O)[C@@]2(c3ccccc31)[C@H](C(=O)N1CCN(c3ncccn3)CC1)[C@H]1C(=O)O[C@H](c3ccccc3)[C@H](c3ccccc3)N1[C@@H]2c1ccc(O)cc1")
"n"
>>> assigned_label("Cc1ccc(S[C@]2(C(=O)O)CC(=O)N(Cc3ccccc3Cl)[C@@H]2c2ccc(CO)cc2I)cc1")
"n"

====

Tested on: Noggin (protein binding on small-molecule microarray)
Protocol: Noggin binders on small-molecule microarray, primary screen, biochemical, 635/667 nm fluorescence (AID 1095);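 also: score merges 667 nm feature fluorescence with signal to noise over triplicate slides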
Conditions: 635 nm fluorescence, higher = more signal
Class assignment keyed on composite z-score, ranges bottom range (below 0.1), center range (0.1 to below 1), top range (1 or more)

>>> assigned_label("O=C1O[C@@H](c2ccccc2)[C@@H](c2ccccc2)N2[C@@H](c3ccc(OCCO)cc3)[C@]3(C(=O)Nc4ccccc43)[C@@H](C(=O)O)[C@H]12")
"bottom range"
>>> assigned_label("COc1cc(OC)c(C(O)C2C=CC3C(=O)N(C)C(=O)C3N2NC(=O)OC(C)(C)C)cc1Br (stereo not given)")
"center range"
>>> assigned_label("O=C1C=C(c2ccccc2)C(=O)c2ccc([C@H]3Oc4ccccc4S(=O)(=O)N4CCC[C@@H]34)cc21")
"bottom range"
>>> assigned_label("COC(=O)c1cn(C[C@@H](Cc2ccccc2)NC(=O)N[C@H](CO)CCc2oc(C(C)=O)c(C(=O)OC)c2C(=O)OC)nn1")
"center range"
>>> assigned_label("COC(=O)C1=CC(CCCO)=CC(C2CC2)N(C)C=C1C(=O)OC (stereo not given)")
"bottom range"
>>> assigned_label("COc1ccc([Si](C)(C)[C@H]2[C@H](CCO)O[C@@]3(C(=O)N(Cc4cccc(N5C(=O)COc6ccccc65)c4)c4ccccc43)[C@@H]2C)cc1")
"center range"
>>> assigned_label("CN(C)C(=O)[C@]1(CCS(=O)(=O)c2ccccc2)N=C(c2ccc(OCCCO)cc2)O[C@@H]1c1ccccc1N=[N+]=[N-]")
"top range"
>>> assigned_label("O=C1O[C@@H](c2ccccc2)[C@@H](c2ccccc2)N2[C@@H](c3ccc(O)cc3)[C@]3(C(=O)Nc4ccc(C#CC5=CCCCC5)cc43)[C@@H](C(=O)NC[C@H](O)c3ccccc3)[C@H]12")
"top range"
>>> assigned_label("O=C1OCC=C[C@H]2OC34C=CCN(c5ccc(Cl)cc5)C(=O)[C@H]3N(CCO)C(=O)[C@@H]4[C@@H]12 (stereo not given in full)")
"bottom range"
>>> assigned_label("COc1ccc([Si](C)(C)[C@@H]2[C@@H](CC(=O)N(CCO)Cc3ccccc3)O[C@]3(C(=O)N(Cc4cccc(N5C(=O)c6cccc7cccc5c67)c4)c4ccccc43)[C@H]2C)cc1")
"top range"
>>> assigned_label("CCOC(=O)C[C@H]1[C@H](OC(=O)c2ccc(C(=O)c3ccccc3)cc2)[C@@H](NC(=O)Cc2ccc(OC)cc2)c2cc(OCCCO)ccc2N1C(=O)c1ccccc1")
"center range"
>>> assigned_label("C=C(C)[C@@H]1CC=C(C(O)C2C=CC3C(=O)N(c4ccccc4)C(=O)C3N2Nc2ccccc2F)CC1 (stereo not given in full)")
"center range"
>>> assigned_label("COc1cccc(/C=C/C=O)c1")
"center range"
>>> assigned_label("CCOC(=O)c1ccc(NC(=O)O[C@H]2[C@H](OC(=O)Nc3ccc4c(c3)OCO4)[C@H](OC(=O)Nc3ccc4c(c3)OCO4)[C@@H](OC)O[C@@H]2CO)cc1")
"top range"

====

Study Target: Neurogenic locus notch homolog protein 3 (Homo sapiens) (UniProt Q9UM47)
Sequence (Q9UM47 whole entry, looked up): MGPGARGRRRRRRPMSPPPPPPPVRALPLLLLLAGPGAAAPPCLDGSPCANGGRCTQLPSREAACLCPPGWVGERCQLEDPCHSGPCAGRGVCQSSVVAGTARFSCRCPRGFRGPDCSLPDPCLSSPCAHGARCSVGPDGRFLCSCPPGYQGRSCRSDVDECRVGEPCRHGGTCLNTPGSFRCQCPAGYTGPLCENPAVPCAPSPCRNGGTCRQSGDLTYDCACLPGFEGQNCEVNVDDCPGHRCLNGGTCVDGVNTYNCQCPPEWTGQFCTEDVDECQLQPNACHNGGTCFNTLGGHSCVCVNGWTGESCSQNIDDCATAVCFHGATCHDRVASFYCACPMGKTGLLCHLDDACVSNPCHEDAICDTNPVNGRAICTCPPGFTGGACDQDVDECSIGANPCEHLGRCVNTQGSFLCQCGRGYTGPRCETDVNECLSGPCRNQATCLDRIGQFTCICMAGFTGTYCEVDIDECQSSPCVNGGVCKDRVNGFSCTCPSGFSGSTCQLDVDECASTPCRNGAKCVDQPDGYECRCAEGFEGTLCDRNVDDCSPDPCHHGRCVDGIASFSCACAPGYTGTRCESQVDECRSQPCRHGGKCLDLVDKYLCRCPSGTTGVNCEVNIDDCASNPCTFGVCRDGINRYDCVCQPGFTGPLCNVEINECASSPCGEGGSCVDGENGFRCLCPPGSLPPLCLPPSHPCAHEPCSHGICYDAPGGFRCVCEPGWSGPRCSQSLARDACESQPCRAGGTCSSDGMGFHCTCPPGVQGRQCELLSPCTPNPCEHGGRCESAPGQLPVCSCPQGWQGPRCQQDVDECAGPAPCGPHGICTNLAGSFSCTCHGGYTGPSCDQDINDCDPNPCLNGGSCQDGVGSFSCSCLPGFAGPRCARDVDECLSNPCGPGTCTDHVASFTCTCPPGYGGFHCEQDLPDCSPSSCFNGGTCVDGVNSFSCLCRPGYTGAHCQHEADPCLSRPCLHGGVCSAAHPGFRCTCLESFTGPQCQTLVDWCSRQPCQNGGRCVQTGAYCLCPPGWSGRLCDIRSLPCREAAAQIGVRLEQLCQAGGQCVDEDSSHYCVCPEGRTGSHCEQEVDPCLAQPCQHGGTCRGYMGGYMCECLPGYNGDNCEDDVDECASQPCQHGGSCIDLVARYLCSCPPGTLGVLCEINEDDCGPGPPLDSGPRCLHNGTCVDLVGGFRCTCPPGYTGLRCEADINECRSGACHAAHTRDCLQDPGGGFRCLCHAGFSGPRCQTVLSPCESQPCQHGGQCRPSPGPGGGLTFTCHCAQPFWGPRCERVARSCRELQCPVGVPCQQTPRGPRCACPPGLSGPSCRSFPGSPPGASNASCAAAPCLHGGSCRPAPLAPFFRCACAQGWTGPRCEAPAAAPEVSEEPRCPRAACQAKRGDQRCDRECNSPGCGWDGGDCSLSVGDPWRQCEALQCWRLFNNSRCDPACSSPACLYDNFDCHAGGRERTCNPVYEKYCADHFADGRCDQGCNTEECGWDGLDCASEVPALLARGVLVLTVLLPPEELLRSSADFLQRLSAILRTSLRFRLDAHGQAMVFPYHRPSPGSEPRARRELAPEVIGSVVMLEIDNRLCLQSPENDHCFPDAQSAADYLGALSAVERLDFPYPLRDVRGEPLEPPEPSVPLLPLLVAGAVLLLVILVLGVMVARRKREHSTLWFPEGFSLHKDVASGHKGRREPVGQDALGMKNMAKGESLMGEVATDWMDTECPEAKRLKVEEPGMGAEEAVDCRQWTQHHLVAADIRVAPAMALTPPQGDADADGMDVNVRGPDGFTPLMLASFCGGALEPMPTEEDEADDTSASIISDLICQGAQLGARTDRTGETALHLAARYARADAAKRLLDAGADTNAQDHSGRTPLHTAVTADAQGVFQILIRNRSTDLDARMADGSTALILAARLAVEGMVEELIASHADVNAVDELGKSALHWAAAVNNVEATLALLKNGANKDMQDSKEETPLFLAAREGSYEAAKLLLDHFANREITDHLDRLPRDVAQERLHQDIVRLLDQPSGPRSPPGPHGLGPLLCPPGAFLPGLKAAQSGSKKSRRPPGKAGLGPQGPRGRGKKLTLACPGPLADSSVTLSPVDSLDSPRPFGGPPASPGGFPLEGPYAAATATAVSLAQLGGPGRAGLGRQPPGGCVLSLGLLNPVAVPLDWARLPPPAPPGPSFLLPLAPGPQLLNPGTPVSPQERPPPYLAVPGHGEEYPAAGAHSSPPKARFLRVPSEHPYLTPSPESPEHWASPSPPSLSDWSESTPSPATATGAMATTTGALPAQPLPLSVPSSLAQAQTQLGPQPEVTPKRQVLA
Protocol: NOTCH3 binders on small-molecule microarray, primary screen, biochemical, 635/667 nm fluorescence (AID 1096)
Conditions: NOTCH3 binding, 635 nm fluorescence, higher = more signal
Measurement Name: composite z-score

>>> reported_result("CN(C)CCCNC(=O)[C@@H]1c2ccccc2C(=O)N(Cc2ccccc2Cl)[C@H]1c1ccc(CO)cc1")
-0.247
>>> reported_result("C=CCN1Cc2ccccc2[C@H]2OC(c3ccc(OCCCO)cc3)=N[C@@]2(CC=C)C1=O")
0.979
>>> reported_result("COCCOC(=O)N1C(=O)[C@@]2(c3cc(C#Cc4ccc(OC)cc4)ccc31)[C@H](c1ccc(O)cc1)N1[C@H](c3ccccc3)[C@H](c3ccccc3)OC(=O)[C@H]1[C@@H]2C(=O)N1CCCCCCC1")
0.0324
>>> reported_result("O=C(NCc1ccccc1)[C@@H]1c2ccccc2C(=O)N(Cc2ccccc2C(F)(F)F)[C@H]1c1ccc(CO)cc1")
-0.0406
>>> reported_result("Cc1ccc(S[C@]2(C(=O)O)CC(=O)N(Cc3cc(C(F)(F)F)cc(C(F)(F)F)c3)[C@@H]2c2ccc(CO)cc2)cc1")
-2.63
>>> reported_result("O=C1N(Cc2ccccc2)c2ccccc2[C@@H]2OC(c3ccc(OCCCO)cc3)=N[C@]12Cc1ccccc1")
0.804
>>> reported_result("CCOC(=O)C1CCCCN1 (configuration not stated)")
0.738
>>> reported_result("CCOC(=O)C[C@H]1[C@H](OC(=O)c2ccc(C(=O)c3ccccc3)cc2)[C@@H](NC(=O)Cc2ccc(OC)cc2)c2cc(OCCCO)ccc2N1C(=O)c1ccccc1")
-0.0979
>>> reported_result("Cc1cc(C)cc(N2C(=O)CSC2c2cccc([N+](=O)[O-])c2)c1 (configuration not stated)")
1.04
>>> reported_result("CCCCCCCCCCC(O)C1C=CC2C(=O)N(C)C(=O)C2N1Nc1ccc([N+](=O)[O-])cc1[N+](=O)[O-] (configuration not stated)")
1.1
>>> reported_result("C=CCC(OC(C)=O)[C@@H]1[C@@H](N(Cc2cccc3ccccc23)C(=O)Cc2ccc(OC)cc2)c2cc(OCCCO)ccc2N1C(=O)c1ccc2ccccc2n1 (some centres not stated)")
0.222
>>> reported_result("CCOC(=O)C[C@H]1[C@H](OC(=O)Cc2ccc3c(c2)OCO3)[C@@H](NC(=O)CC(C)C)c2cc(OCCCO)ccc2N1C(=O)Cc1ccc(OC)cc1")
0.0046
